System: Danio rerio larvae (5 dpf)
Method Notes: difference in habituation to acoustic stimuli vs DMSO (percentage points); higher = more habituation than DMSO
Reported Conditions: 10 µM; exposure time 6 h
Structures can show the parent of a compound that is named as a salt.
Using difference in habituation to acoustic stimuli as the sorting value, the categories are bottom (below -4), middle (-4 to below 1), top (1 or more)

Molecule	Class Assignment
CO/N=C1\C[C@]2(C[C@@H]3C[C@@H](C/C=C(\C)C[C@@H](C)/C=C/C=C4\CO[C@@H]5[C@H](O)C(C)=C[C@@H](C(=O)O3)[C@]45O)O2)O[C@H](/C(C)=C/C(C)C)[C@H]1C	bottom
C[C@H]1O[C@H](O[C@H]2[C@H](O)[C@@H](O)[C@@H](O[C@H]3[C@H](O)[C@@H](O)C(O)O[C@@H]3CO)O[C@@H]2CO)[C@H](O)[C@@H](O)[C@@H]1N[C@H]1C=C(CO)[C@@H](O)[C@H](O)[C@H]1O (stereo not given in full)	bottom
CC1(C)O[C@@H]2C[C@H]3[C@@H]4C[C@H](F)C5=CC(=O)CC[C@]5(C)[C@H]4[C@@H](O)C[C@]3(C)[C@]2(C(=O)CO)O1 [Flurandrenolide]	middle
Cc1cccc(CN2CCN(C(c3ccccc3)c3ccc(Cl)cc3)CC2)c1 (stereo not given) [Meclizine (hydrochloride)]	bottom
COc1cc2nc(N(C)CCCNC(=O)C3CCCO3)nc(N)c2cc1OC (stereo not given) [Alfuzosin (hydrochloride)]	bottom
C1N2CN3CN1CN(C2)C3 [Methenamine Hippurate]	top
NS(=O)(=O)c1cc(C(=O)O)c(NCc2ccco2)cc1Cl [Furosemide]	middle
CC(=O)OCC[N+](C)(C)C [Acetylcholine (chloride)]	top
CS(=O)(=O)OCCCCOS(C)(=O)=O	top
COC(=O)CCc1ccc(OCC(O)CNC(C)C)cc1 (stereo not given) [Esmolol (hydrochloride)]	middle
O=C(NC1CCN(CCCCC2(C(=O)NCC(F)(F)F)c3ccccc3-c3ccccc32)CC1)c1ccccc1-c1ccc(C(F)(F)F)cc1 [Lomitapide]	middle
Nc1nc2c(ncn2COCCO)c(=O)[nH]1	top
CN1CCC[C@H]1c1cccnc1 (racemic) [(±)-Nicotine]	bottom
CC(=O)S[C@@H]1CC2=CC(=O)CC[C@]2(C)[C@H]2CC[C@@]3(C)[C@@H](CC[C@@]34CCC(=O)O4)[C@H]12	middle
